test: Evaluation of blood cell number in mouse; assay type: in vivo; conditions: male ICR mice, oral, repeated 7 or 9 days, 1 mg/kg
Counter-ions that a name gives are not always drawn.
PROPERTY MEASURED: Platelets, Mean

// below: answered compounds
• O=C(NC1CCOCC1)c1csc([C@@H]2C[C@H]2NCC2CC2)c1 [Example 71, hydrochloride] = 1178 10^3 cells
• Cc1nnc(NC(=O)c2cc([C@@H]3C[C@H]3NC3CCC3)c(C)s2)s1 [Example 99, hydrochloride] = 1442 10^3 cells
• Cc1nnc(NC(=O)c2cc([C@@H]3C[C@H]3NCC3CCOCC3)c(C)s2)s1 [Example 97, hydrochloride] = 1462 10^3 cells
• Cc1nnc(NC(=O)c2cc([C@@H]3C[C@H]3NCC3CC3)cs2)s1 [Example 82, dihydrochloride] = 1399 10^3 cells

[ask] Name the reported Platelets, Mean value associated with the compound Cc1nnc(NC(=O)c2cc([C@@H]3C[C@H]3NCC3CC3)c(C)s2)s1 [Example 95, fumarate]
[reply] 1352 10^3 cells
